Tested on: SEM cells
Test name: cell viability relative to DMSO control; higher = less cytotoxic
Condition details: HPLM + 10% dialyzed FBS; 48 h; 0.0632 µM
I'd be grateful if you could share measured cell viability for these entries.
Entry rule: numbers only, all in %.

get_value(item= Cc1ccc(-c2cc(C(F)(F)F)nn2-c2ccc([S+](N)(=O)[O-])cc2)cc1 , readout=cell viability) returns 119

get_value(item= Nc1ccn([C@H]2CS[C@@H](CO)O2)c(=O)n1 , readout=cell viability) returns 137

get_value(item= C[N]1N=CC=C1C/2=C(\C)N(C(=O)C(=C2)/C(=O)NCC3=NC=C(C=C3)[S+](C)([O-])=O)C4=CC=CC(=C4)C(F)(F)F , readout=cell viability) returns 105

get_value(item= C[N]1C=C(C=N1)C2=CC=C3N=CC\4=C(N(C(=O)\C=C4)C5=CC6=C(CCN6C(=O)C=C)C=C5)C3=C2 , readout=cell viability) returns 93.9

get_value(item= NCCc1ccc(O)c(O)c1 , readout=cell viability) returns 130

get_value(item= C[C@]\12CCC(=O)\C=C1[C@@H]3C[C@@H]3[C@@H]4[C@@H]2CC[C@@]5(C)[C@H]4[C@@H]6C[C@@H]6[C@@]57CCC(=O)O7 , readout=cell viability) returns 120

get_value(item= CC[C@H]1OC(=O)[C@H](C)[C@@H](O[C@H]2C[C@@](C)(OC)[C@@H](O)[C@H](C)O2)[C@H](C)[C@@H](O[C@@H]2O[C@H](C)C[C@H](N(C)C)[C@H]2O)[C@](C)(O)C[C@@H](C)CN(C)[C@H](C)[C@@H](O)[C@]1(C)O , readout=cell viability) returns 133

get_value(item= N#Cc1ccc(NC(=O)Nc2ccccc2Br)c2nn[nH]c12 , readout=cell viability) returns 107

get_value(item= Oc1ccc2ccccc2c1SSc1c(O)ccc2ccccc12 , readout=cell viability) returns 106

get_value(item= Oc1c(Cl)cc(Cl)c2cccnc12 , readout=cell viability) returns 109

get_value(item= N[C@@H](Cc1ccc(O)c(O)c1)C(=O)O , readout=cell viability) returns 107

get_value(item= CC[C@H]1CN2CCc3cc(OC)c(OC)cc3[C@@H]2C[C@@H]1C[C@H]1NCCc2cc(OC)c(OC)cc21 , readout=cell viability) returns 89.7

get_value(item= NNc1nncc2ccccc12 , readout=cell viability) returns 117

get_value(item= COc1ccc(-c2oc3cc(OC)ccc3c2C(=O)c2ccc(C#N)cc2)cc1 , readout=cell viability) returns 128

get_value(item= Cc1cccc2c1CC[C@H](CN1CCC(c3c(Cl)cccc3Cl)CC1)C[C@@H]2O , readout=cell viability) returns 128

get_value(item= CCCCCN(CCC12CC3CC(CC(C3)C1)C2)C(=O)NCCCc1ccncc1 , readout=cell viability) returns 102

get_value(item= C[N+]1(C)[C@@H]2CC(OC(=O)C(O)(c3cccs3)c3cccs3)C[C@H]1[C@@H]1O[C@@H]12 (stereo partly drawn) , readout=cell viability) returns 113

get_value(item= COc1cc2ncn(-c3cc(OCc4ccccc4C(F)(F)F)c(C(N)=O)s3)c2cc1OC , readout=cell viability) returns 115

====

I'd be grateful if you could share measured cell viability for these entries.
Test system: P12-Ichikawa
Test name: cell viability relative to DMSO control; higher = less cytotoxic
Condition details: RPMI 5 mM glucose + 10% dialyzed FBS; 48 h; 0.569 µM
Entry rule: numbers only, all in %.

get_value(item= COc1cc2ncn(-c3cc(OCc4ccccc4C(F)(F)F)c(C(N)=O)s3)c2cc1OC , readout=cell viability) returns 103

get_value(item= C[N]1C=C(C=N1)C2=CC=C3N=CC\4=C(N(C(=O)\C=C4)C5=CC6=C(CCN6C(=O)C=C)C=C5)C3=C2 , readout=cell viability) returns 119

get_value(item= N#C/C(=C1/Nc2ccccc2S1)c1ccnc(OCc2ccc(CN3CCOCC3)cc2)n1 , readout=cell viability) returns 108

get_value(item= Cc1ccc(-c2cc(C(F)(F)F)nn2-c2ccc([S+](N)(=O)[O-])cc2)cc1 , readout=cell viability) returns 123
